TARGET_ENTITY: von Hippel-Lindau disease tumor suppressor/Ubiquitin carboxyl-terminal hydrolase 7 (Homo sapiens, UniProt Q93009+P40337)
Sequence (P40337 whole entry, looked up): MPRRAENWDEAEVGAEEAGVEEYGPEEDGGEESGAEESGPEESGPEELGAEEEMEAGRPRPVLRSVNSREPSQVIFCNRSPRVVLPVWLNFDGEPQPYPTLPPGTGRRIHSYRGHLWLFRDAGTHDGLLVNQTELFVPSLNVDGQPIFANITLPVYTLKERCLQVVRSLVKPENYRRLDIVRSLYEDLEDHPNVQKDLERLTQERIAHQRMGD
Sequence (Q93009 whole entry, looked up): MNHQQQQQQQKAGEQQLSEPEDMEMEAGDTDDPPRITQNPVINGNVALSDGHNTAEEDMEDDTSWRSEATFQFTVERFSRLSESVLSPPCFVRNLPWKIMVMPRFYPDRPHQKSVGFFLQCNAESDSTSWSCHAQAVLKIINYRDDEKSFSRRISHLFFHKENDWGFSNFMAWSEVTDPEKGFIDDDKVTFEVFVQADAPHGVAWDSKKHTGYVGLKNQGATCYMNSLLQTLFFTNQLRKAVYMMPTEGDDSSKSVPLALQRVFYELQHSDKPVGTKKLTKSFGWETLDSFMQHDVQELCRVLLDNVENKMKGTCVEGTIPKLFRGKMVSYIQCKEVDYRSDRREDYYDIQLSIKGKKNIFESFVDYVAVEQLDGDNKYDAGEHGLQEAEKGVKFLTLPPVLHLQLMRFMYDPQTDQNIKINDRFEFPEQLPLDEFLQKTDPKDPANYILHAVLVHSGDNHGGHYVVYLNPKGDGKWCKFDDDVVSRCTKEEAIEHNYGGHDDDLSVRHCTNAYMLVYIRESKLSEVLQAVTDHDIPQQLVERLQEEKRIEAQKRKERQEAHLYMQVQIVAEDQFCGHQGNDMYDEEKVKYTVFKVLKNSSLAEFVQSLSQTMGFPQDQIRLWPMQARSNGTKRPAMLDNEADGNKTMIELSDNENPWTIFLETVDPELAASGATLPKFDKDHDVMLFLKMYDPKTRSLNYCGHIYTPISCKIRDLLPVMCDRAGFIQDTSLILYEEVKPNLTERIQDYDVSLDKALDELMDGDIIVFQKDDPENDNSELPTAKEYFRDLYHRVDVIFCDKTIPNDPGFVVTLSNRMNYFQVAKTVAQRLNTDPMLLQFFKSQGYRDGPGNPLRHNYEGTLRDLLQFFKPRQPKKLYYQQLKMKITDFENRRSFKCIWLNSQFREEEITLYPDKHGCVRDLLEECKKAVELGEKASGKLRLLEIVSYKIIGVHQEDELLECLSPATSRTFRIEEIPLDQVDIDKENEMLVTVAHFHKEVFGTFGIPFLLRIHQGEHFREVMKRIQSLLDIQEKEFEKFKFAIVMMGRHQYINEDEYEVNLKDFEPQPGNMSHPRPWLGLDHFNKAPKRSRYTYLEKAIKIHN
ASSAY_DETAILS: PROTACT activity at USP7/VHL in human RS4;11 cells assessed as protein degradation at 10 nM measured after 24 hrs by Western blot analysis relative to control
Type: cell-based

COMPOUND_SMILES | Activity
Cc1ncsc1-c1ccc([C@H](C)NC(=O)[C@@H]2C[C@@H](O)CN2C(=O)[C@@H](NC(=O)CCCCCCCNCc2ccc(-c3c4ncn(CC5(O)CCN(C(=O)C[C@@H](C)c6ccccc6)CC5)c(=O)c4nn3C)cc2)C(C)(C)C)cc1 | 46.9%
Cc1ncsc1-c1ccc([C@H](C)NC(=O)[C@@H]2C[C@@H](O)CN2C(=O)[C@@H](NC(=O)CCCCCCCCCCCNCc2ccc(-c3c4ncn(CC5(O)CCN(C(=O)C[C@@H](C)c6ccccc6)CC5)c(=O)c4nn3C)cc2)C(C)(C)C)cc1 | 31.9%
